System: 429239-143-T-J1-PDC complex spheroid viability;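 further: luminescence signal used as surrogate measure of viable cells; spheroids exposed to compounds for seven days before readout; 100% = DMSO vehicle control viability as luminescence relative to vehicle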
Experiment: Anticancer human tumor 429239-143-T-J1-PDC patient-derived small cell lung carcinoma cell line growth inhibition [POLQ]
Conditions: second compound 1 µM; first compound 1 µM; hits give low values
Description: Multicellular complex tumor spheroid response to Polymerase (POL) inhibitors (novobiocin, ART-558, RP6685) in combination with a variety of drugs and investigational agents in selected tumor cell lines The POL inhibitors (novobiocin, ART-558, and RP6685) were evaluated both individually and in combination with standard of care and investigational anticancer small molecules within a complex spheroid model of solid tumors. . […]
Quantity name: viability, T/C (%)

Molecule | Experimental system | Quantity name | Value measured
CCc1c2c(nc3ccc(O)cc13)-c1cc3c(c(=O)n1C2)COC(=O)[C@]3(O)CC + COC1C(OC(N)=O)C(O)C(Oc2ccc3c(O)c(NC(=O)c4ccc(O)c(CC=C(C)C)c4)c(=O)oc3c2C)OC1(C)C | 429239-143-T-J1-PDC complex spheroid viability | viability, T/C | 6.46
COc1ccc([C@@H](O)c2cc(-c3ncnc4cc(N5CCOCC5)ccc34)c(F)cc2Cl)nn1 + COC1C(OC(N)=O)C(O)C(Oc2ccc3c(O)c(NC(=O)c4ccc(O)c(CC=C(C)C)c4)c(=O)oc3c2C)OC1(C)C | 429239-143-T-J1-PDC complex spheroid viability | viability, T/C | 76.4
Nc1ccn(C2OC(CO)C(O)C2(F)F)c(=O)n1 (stereo not given) + Cc1cccc(N(C)C(=O)C2C(O)CCN2c2nc(C)cc(C(F)(F)F)c2C#N)c1 | 429239-143-T-J1-PDC complex spheroid viability | viability, T/C | 16.6
COc1cc2cc(C(=O)CCC(=O)O)sc2cc1OC + Cc1cccc(N(C)C(=O)C2C(O)CCN2c2nc(C)cc(C(F)(F)F)c2C#N)c1 | 429239-143-T-J1-PDC complex spheroid viability | viability, T/C | 115
COc1cc2cc(C(=O)CCC(=O)O)sc2cc1OC + COC1C(OC(N)=O)C(O)C(Oc2ccc3c(O)c(NC(=O)c4ccc(O)c(CC=C(C)C)c4)c(=O)oc3c2C)OC1(C)C | 429239-143-T-J1-PDC complex spheroid viability | viability, T/C | 90.9
